The origin of these recorded values is patent US9271971B2.

# key: entry, value: inhibition at 1 µM
Biological target: human recombinant histamine H1 receptor (Homo sapiens, UniProt P35367)
Sequence (P35367 whole entry): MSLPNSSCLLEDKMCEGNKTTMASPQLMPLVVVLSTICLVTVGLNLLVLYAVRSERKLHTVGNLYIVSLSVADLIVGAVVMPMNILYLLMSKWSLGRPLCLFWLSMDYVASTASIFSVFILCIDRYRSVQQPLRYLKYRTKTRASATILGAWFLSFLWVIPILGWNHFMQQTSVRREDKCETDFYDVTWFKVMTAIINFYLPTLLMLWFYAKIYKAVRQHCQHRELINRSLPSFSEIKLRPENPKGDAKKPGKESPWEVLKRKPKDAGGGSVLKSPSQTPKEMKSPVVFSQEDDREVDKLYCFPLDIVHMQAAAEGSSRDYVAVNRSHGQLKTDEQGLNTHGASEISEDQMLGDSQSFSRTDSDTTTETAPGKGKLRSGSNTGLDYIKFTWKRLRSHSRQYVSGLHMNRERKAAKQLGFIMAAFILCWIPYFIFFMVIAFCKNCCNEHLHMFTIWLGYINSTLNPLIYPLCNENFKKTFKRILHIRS
Assay: Histamine H1 radioligand binding assay
Details: [3H]Pyrilamine specific binding, read-out: Percentage Inhibition, Histamine Binding (1 μM) H1
// units = %; emit number, no label

Recorded inhibition at 1 µM, per entry:
The compound listed as Cc1ccc2c(c1)c1c(n2CC(=O)NC2CCCCC2)CN2CCC1C2 (centres unmarked) [Compound 23] has a reported inhibition at 1 µM of 13

Briefly, inhibition at 1 µM measured for Cc1ccc2c(c1)c1c(n2CC(=O)N(C)C)CN2CCC1C2 (centres unmarked) [Compound 27] : 10

---
Entry under test: Cc1ccc2c(c1)c1c(n2CCc2ccncc2)CN2CCC1C2 (centres unmarked) [Compound 30] . Its inhibition at 1 µM was 76

Form: compound = Cc1ccc2c(c1)c1c(n2CC(O)c2ccccc2)CN2CCC1C2 (centres unmarked) [Compound 4] ; inhibition at 1 µM = 67

Quick note, inhibition at 1 µM for Cc1ccc(/C=C/n2c3c(c4cc(C)ccc42)C2CCN(C3)C2)cc1 (centres unmarked) [Compound 10] landed at 70

---

Molecular target: human recombinant serotonin (5-Hydroxytryptamine) 5-HT6 receptor (Homo sapiens)
Construct: expressed in transfected cells; host or cells: human HeLa cells
Assay: Serotonin 5-HT6 radioligand binding assay
Conditions: [3H]LSD specific binding, read-out: Percent Inhibition of ligand binding, Serotonin (1 μM ligand concentration) 5-HT6
Method: To evaluate in radioligand binding assays the activity of compounds of the invention, human recombinant serotonin (5-Hydroxytryptamine) 5-HT6 receptor expressed in human HeLa cells [Monsma, F. J. Jr et al., Mol. Pharmacol. (1993), 43:320] in a modified Tris-HCl buffer (50 mM Tris-HCl, pH 7.4, 150 mM NaCl, 2 mM Ascorbic Acid, 0.001% BSA) was used. […] Receptor proteins were filtered and washed, the filters were then counted to determine[3H]LSD specifically bound. […]
Measured inhibition at 1 µM of individual entries
Please respond with the number in % and leave the unit unwritten.

Worked set:
Let me check: C/C(=C\n1c2c(c3cc(C)ccc31)C1CCN(C2)C1)c1cccnc1 (stereo not drawn) [Compound 42] , system human recombinant serotonin (5-Hydroxytryptamine) 5-HT6 receptor (Homo sapiens), measured inhibition at 1 µM is 26

Fill in: human recombinant serotonin (5-Hydroxytryptamine) 5-HT6 receptor (Homo sapiens) inhibition at 1 µM for C/C(=C\n1c2c(c3cc(C)ccc31)C1CCN(C2)C1)c1ccc(Cl)cc1 (stereo not drawn) [Compound 32] = 97

Let me check: Cc1ccc2c(c1)c1c(n2C(=O)Cc2ccc(Cl)cc2)CN2CCC1C2 (stereo not drawn) [Compound 36] , system human recombinant serotonin (5-Hydroxytryptamine) 5-HT6 receptor (Homo sapiens), measured inhibition at 1 µM is 38

Response field inhibition at 1 µM (human recombinant serotonin (5-Hydroxytryptamine) 5-HT6 receptor (Homo sapiens)) for item Cc1ccc(C(O)Cn2c3c(c4cc(C)ccc42)C2CCN(C3)C2)cc1 (stereo not drawn) [Compound 5] : 14

GET /values?item= C/C(=C\n1c2c(c3cc(C)ccc31)C1CCN(C2)C1)c1ccc(F)cc1 (stereo not drawn) [Compound 22] &system= human recombinant serotonin (5-Hydroxytryptamine) 5-HT6 receptor (Homo sapiens) returns inhibition at 1 µM: 102

Value sought: inhibition at 1 µM, system human recombinant serotonin (5-Hydroxytryptamine) 5-HT6 receptor (Homo sapiens), item Cc1ccc2c(c1)c1c(n2CC(=O)N(C)C)CN2CCC1C2 (stereo not drawn) [Compound 27] . Result: 5

Continuing:
Entry Cc1ccc2c(c1)c1c(n2CC(O)c2ccccc2)CN2CCC1C2 (stereo not drawn) [Compound 4] , human recombinant serotonin (5-Hydroxytryptamine) 5-HT6 receptor (Homo sapiens) data, inhibition at 1 µM value: 56

Here COc1ccc(/C(C)=C/n2c3c(c4cc(C)ccc42)C2CCN(C3)C2)cc1 (stereo not drawn) [Compound 45] was tested on human recombinant serotonin (5-Hydroxytryptamine) 5-HT6 receptor (Homo sapiens), and its inhibition at 1 µM came to 80

---

Biological target: human recombinant serotonin (5-Hydroxytryptamine) 5-HT6 receptor (Homo sapiens, UniProt P50406)
Construct: expressed in transfected cells; host or cells: human HeLa cells
Sequence (P50406 whole entry): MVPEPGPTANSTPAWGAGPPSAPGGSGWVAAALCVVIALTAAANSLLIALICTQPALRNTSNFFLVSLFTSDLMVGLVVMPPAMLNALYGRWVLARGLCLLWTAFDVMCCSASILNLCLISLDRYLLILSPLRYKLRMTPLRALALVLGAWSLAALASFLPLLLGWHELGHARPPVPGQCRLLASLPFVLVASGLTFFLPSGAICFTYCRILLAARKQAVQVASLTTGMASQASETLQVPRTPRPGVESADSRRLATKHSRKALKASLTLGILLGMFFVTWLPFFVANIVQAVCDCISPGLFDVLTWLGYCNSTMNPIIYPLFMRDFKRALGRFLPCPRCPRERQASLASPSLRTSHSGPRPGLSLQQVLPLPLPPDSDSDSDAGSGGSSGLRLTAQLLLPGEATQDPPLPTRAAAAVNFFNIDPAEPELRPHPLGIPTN
Experiment: Serotonin 5-HT6 radioligand binding assay
Details: [3H]LSD specific binding, read-out: Percent Inhibition of ligand binding, Serotonin (1 μM ligand concentration) 5-HT6
Please use T whenever inhibition at 1 µM is not below 10%, and F whenever it is.

Use the examples below as a reference point.
q: Quick check: does Cc1ccc2c(c1)c1c(n2CC(=O)c2ccc(F)cc2)CN2CCC1C2 (centres unmarked) have inhibition at 1 µM greater than or equal to 10%?
a: T

q: State whether the measured inhibition at 1 µM reaches 10%, counting equality as reaching it, for Cc1ccc2c(c1)c1c(n2CCc2ccc(C)nc2)CN2CCC1C2 (centres unmarked)
a: F

Others:
q: Entry Cc1ccc(C(C)(O)Cn2c3c(c4cc(C)ccc42)C2CCN(C3)C2)cc1 (centres unmarked) : is its inhibition at 1 µM no less than 10%?
a: T

q: Determine whether measured inhibition at 1 µM meets or exceeds 10% for Cc1ccc2c(c1)c1c(n2CC(C)(O)c2ccc(F)c(Cl)c2)CN2CCC1C2 (centres unmarked)
a: T

q: Is inhibition at 1 µM for Cc1ccc2c(c1)c1c(n2CC(=O)N2CCOCC2)CN2CCC1C2 (centres unmarked) at or above 10%?
a: F

---

The entries below are paired with their reported inhibition at 1 µM.
Biological target: human recombinant histamine H2 receptor (Homo sapiens, UniProt P25021)
Construct: expressed in transfected cells; host or cells: Chinese hamster ovary (CHO) K1 cells
Sequence (P25021 whole entry): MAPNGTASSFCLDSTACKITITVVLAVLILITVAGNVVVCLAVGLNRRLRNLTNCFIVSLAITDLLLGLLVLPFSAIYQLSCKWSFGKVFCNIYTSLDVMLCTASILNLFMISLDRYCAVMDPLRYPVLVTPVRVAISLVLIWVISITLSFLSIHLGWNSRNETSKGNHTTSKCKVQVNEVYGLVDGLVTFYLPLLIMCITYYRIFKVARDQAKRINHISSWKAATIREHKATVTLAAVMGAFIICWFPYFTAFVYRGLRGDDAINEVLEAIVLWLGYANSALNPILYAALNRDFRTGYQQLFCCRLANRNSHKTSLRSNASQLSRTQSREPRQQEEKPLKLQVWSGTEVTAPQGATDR
Test: Histamine H2 radioligand binding assay
Conditions: [125I]Aminopotentidine specific binding, read-out: Percentage Inhibition, Histamine Binding (1 μM) H2
Protocol: To evaluate in radioligand binding assays the activity of compounds of the invention, human recombinant histamine H2 receptor expressed in Chinese hamster ovary (CHO) K1 cells [Ruat, M., Proc. Natl. Acad. Sci. USA. (1990), 87(5):1658] in a 50 mM Phosphate buffer, pH 7.4 was used. […] Receptor proteins were filtered and washed, the filters were then counted to determine [^125I]Aminopotentidine specifically bound. […]
Could you give me the number in %? Just the number is fine.

Form: compound = C/C(=C/n1c2c(c3cc(C)ccc31)C1CCN(C2)C1)c1ccccc1F (stereo not drawn) [Compound 37] ; inhibition at 1 µM = 22

Lab note: measured inhibition at 1 µM of C/C(=C\n1c2c(c3cc(C)ccc31)C1CCN(C2)C1)c1cccnc1 (stereo not drawn) [Compound 42] was 1

Recorded inhibition at 1 µM (compound Cc1ccc2c(c1)c1c(n2CCc2ccncc2)CN2CCC1C2 (stereo not drawn) [Compound 30] ): 18

Record Cc1ccc(C(O)Cn2c3c(c4cc(C)ccc42)C2CCN(C3)C2)cc1 (stereo not drawn) [Compound 5] . Reported inhibition at 1 µM: 4

Others:
// sample Cc1ccc2c(c1)c1c(n2CC(=O)c2ccccc2)CN2CCC1C2 (stereo not drawn) [Compound 21] , its inhibition at 1 µM was -6

Recorded result, C/C(=C\n1c2c(c3cc(C)ccc31)C1CCN(C2)C1)c1ccccc1F (stereo not drawn) [Compound 38] , inhibition at 1 µM: 7

Lab note: measured inhibition at 1 µM of Cc1ccc2c(c1)c1c(n2CCc2cncc(F)c2)CN2CCC1C2 (stereo not drawn) [Compound 9] was 6

Entry C/C(=C\n1c2c(c3cc(C)ccc31)C1CCN(C2)C1)c1ccc(Cl)cc1Cl (stereo not drawn) [Compound 33] , inhibition at 1 µM reported as 35

Cc1ccc2c(c1)c1c(n2C(=O)Cc2ccc(F)cc2)CN2CCC1C2 (stereo not drawn) [Compound 43] has a reported inhibition at 1 µM of 7

---

Target: human recombinant adrenergic α2B receptor (Homo sapiens)
Construct: expressed in transfected cells; host or cells: Chinese hamster ovary (CHO-K1) cells
Sequence (P18089 whole entry): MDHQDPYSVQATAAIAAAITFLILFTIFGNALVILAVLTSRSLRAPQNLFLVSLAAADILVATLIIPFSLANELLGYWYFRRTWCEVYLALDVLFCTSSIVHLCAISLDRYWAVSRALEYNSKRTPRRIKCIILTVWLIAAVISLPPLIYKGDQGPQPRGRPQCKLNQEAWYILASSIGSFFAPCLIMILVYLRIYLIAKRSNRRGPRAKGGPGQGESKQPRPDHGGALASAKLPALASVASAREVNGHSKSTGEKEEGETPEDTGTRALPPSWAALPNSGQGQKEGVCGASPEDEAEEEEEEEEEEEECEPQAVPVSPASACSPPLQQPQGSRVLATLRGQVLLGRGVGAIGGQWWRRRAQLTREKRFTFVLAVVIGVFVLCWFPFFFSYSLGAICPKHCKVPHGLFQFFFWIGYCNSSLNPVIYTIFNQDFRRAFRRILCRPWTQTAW
Test: Adrenergic α2B radioligand binding assay
Conditions: 0.1 μM; [3H]Rauwolscine specific binding; read-out: Percent Inhibition of ligand binding, Adrenergic (0.1 μM ligand conc.) α2B
Quick reference: inhibition at 0.1 µM of the listed items.
A number alone suffices; assume %.

Reference set (2 entries):
Per the records, this molecule ( C/C(=C\n1c2c(c3cc(C)ccc31)C1CCN(C2)C1)c1ccccc1F (stereo not drawn) ) has inhibition at 0.1 µM equal to 25

Input COc1ccc(/C(C)=C/n2c3c(c4cc(C)ccc42)C2CCN(C3)C2)cc1 (stereo not drawn) . Output inhibition at 0.1 µM: 15

Further cases:
For reference, reported inhibition at 0.1 µM for C/C(=C\n1c2c(c3cc(C)ccc31)C1CCN(C2)C1)c1ccc(Cl)cc1Cl (stereo not drawn) stands at 9

For reference, reported inhibition at 0.1 µM for Cc1ccc2c(c1)c1c(n2C(=O)Cc2ccc(Cl)cc2)CN2CCC1C2 (stereo not drawn) stands at 13

Lab note: measured inhibition at 0.1 µM of C/C(=C\n1c2c(c3cc(C)ccc31)C1CCN(C2)C1)c1ccc(Cl)cc1 (stereo not drawn) was 56

Short answer for C/C(=C\n1c2c(c3cc(C)ccc31)C1CCN(C2)C1)c1ccncc1 (stereo not drawn) : inhibition at 0.1 µM was 9
